# credit: PubChem BioAssay (NCI)

Readings of TGI for the listed molecules
Tested on: OVCAR-8 ovarian
Test: NCI tumour cell line growth inhibition, 48 h

>  <chemical-smiles>
CN1CCN(Cc2ccc(NC(=O)c3cncc(C#Cc4cnc5cccnn45)c3)cc2C(F)(F)F)CC1

>  <assay-target>
OVCAR-8 ovarian

>  <TGI>
6.3 µM

$$$$
>  <chemical-smiles>
O=C(COC(=O)[C@H](C[Se][Se]C[C@H](NC(=O)c1ccc(Br)cc1F)C(=O)OCC(=O)c1ccc(F)cc1)NC(=O)c1ccc(Br)cc1F)c1ccc(F)cc1

>  <assay-target>
OVCAR-8 ovarian

>  <TGI>
1.61 µM

$$$$
>  <chemical-smiles>
CCOC(=O)C1=C(O)c2c(OC)ccc(OC)c2C(=O)C1=O

>  <assay-target>
OVCAR-8 ovarian

>  <TGI>
> 100 µM

$$$$
>  <chemical-smiles>
Nn1c(=S)[nH]nc(/C=C/c2c(O)ccc3ccccc23)c1=O

>  <assay-target>
OVCAR-8 ovarian

>  <TGI>
4.81 µM

$$$$
>  <chemical-smiles>
COc1ccc(Cl)cc1Nc1nc(C(F)(F)F)ccc1C(=O)N/N=C/c1ccc(Cl)cc1

>  <assay-target>
OVCAR-8 ovarian

>  <TGI>
> 100 µM

$$$$
>  <chemical-smiles>
CN(C)c1ccc(/C=C2\CCCCCC2=O)cc1

>  <assay-target>
OVCAR-8 ovarian

>  <TGI>
> 100 µM

$$$$
>  <chemical-smiles>
COc1ccc(-c2cc(=O)c3cc(OC)c(OC)cc3[nH]2)cc1OC

>  <assay-target>
OVCAR-8 ovarian

>  <TGI>
> 100 µM

$$$$
>  <chemical-smiles>
O=C1NC2(CCCCC2)C2=C1CCCCC2

>  <assay-target>
OVCAR-8 ovarian

>  <TGI>
> 100 µM

$$$$

----------
Test system: SR leukemia
Assay: NCI tumour cell line growth inhibition, 48 h
Readings of TGI for the listed compounds
recorded-endpoint: TGI (µM)

>  <compound>
Cc1cc(N(CCCl)CCCl)ccc1/C=N\NC(=O)c1cccnc1

>  <assay-target>
SR leukemia

>  <recorded-endpoint>
TGI

>  <lt-gt-eq>
>

>  <result-value>
100

$$$$
>  <compound>
CC(=O)OC1C(C)OC(OC2C[C@](O)(C(C)=O)Cc3c(O)c4c(c(O)c32)C(=O)c2ccccc2C4=O)C(F)C1OC(C)=O (some centres undefined)

>  <assay-target>
SR leukemia

>  <recorded-endpoint>
TGI

>  <lt-gt-eq>
=

>  <result-value>
0.887

$$$$
>  <compound>
O=C(Nc1cccc(C(F)(F)F)c1)Nc1ccc(OCc2nnc(-c3ccccc3)o2)c(F)c1

>  <assay-target>
SR leukemia

>  <recorded-endpoint>
TGI

>  <lt-gt-eq>
=

>  <result-value>
9.65

$$$$
>  <compound>
Cn1c(=O)c2c(n(C)c1=O)n1c(=O)c3ccccc3nc1n2C

>  <assay-target>
SR leukemia

>  <recorded-endpoint>
TGI

>  <lt-gt-eq>
>

>  <result-value>
100

$$$$
>  <compound>
CC(=O)Nc1ccc(C(=O)COc2cccc(/C=C3\CCc4ccccc4C3=O)c2)cc1

>  <assay-target>
SR leukemia

>  <recorded-endpoint>
TGI

>  <lt-gt-eq>
=

>  <result-value>
16.7

$$$$
>  <compound>
Cn1c(=O)c(C#N)c(O)c2cc3ccccc3nc21

>  <assay-target>
SR leukemia

>  <recorded-endpoint>
TGI

>  <lt-gt-eq>
>

>  <result-value>
100

$$$$
>  <compound>
COc1cc(-c2nn(-c3cccc(NC(=O)c4cccc(C(F)(F)F)c4)c3)cc2-c2ccncc2)ccc1Cl

>  <assay-target>
SR leukemia

>  <recorded-endpoint>
TGI

>  <lt-gt-eq>
=

>  <result-value>
4.59

$$$$
>  <compound>
Cc1ccc(C(=O)C2CC3(CCC2(O)c2ccc(C)cc2)CC(=O)Nc2ccccc2C3=O)cc1 (centres undefined)

>  <assay-target>
SR leukemia

>  <recorded-endpoint>
TGI

>  <lt-gt-eq>
>

>  <result-value>
100

$$$$
>  <compound>
O=C(/C=C/c1ccc(OCC(=O)N2CCN(c3ccccc3)CC2)cc1)c1ccccc1

>  <assay-target>
SR leukemia

>  <recorded-endpoint>
TGI

>  <lt-gt-eq>
=

>  <result-value>
7.45

$$$$
>  <compound>
CN(C)C(=O)c1cc2cnc(Nc3ccc(N4CCNCC4)cn3)nc2n1C1CCCC1

>  <assay-target>
SR leukemia

>  <recorded-endpoint>
TGI

>  <lt-gt-eq>
=

>  <result-value>
38.7

$$$$
>  <compound>
N#Cc1c(N/N=C/c2c(Cl)cccc2Cl)nc(N)nc1N1CCCC1

>  <assay-target>
SR leukemia

>  <recorded-endpoint>
TGI

>  <lt-gt-eq>
=

>  <result-value>
3.03

$$$$
>  <compound>
CC(C)S1=C2C(=O)CC(C)(C)CC2=Nc2ccccc21 (centres undefined)

>  <assay-target>
SR leukemia

>  <recorded-endpoint>
TGI

>  <lt-gt-eq>
>

>  <result-value>
100

$$$$
>  <compound>
CCNc1nc(-c2ccc(Cl)c(OC)c2)c(-c2ccnc(NCCNS(=O)(=O)c3ccc(Cl)cc3)n2)s1

>  <assay-target>
SR leukemia

>  <recorded-endpoint>
TGI

>  <lt-gt-eq>
=

>  <result-value>
7.51

$$$$
>  <compound>
CCOC(=O)C1C(=O)C(=O)N2CCc3c([nH]c4ccccc34)C12 (centres undefined)

>  <assay-target>
SR leukemia

>  <recorded-endpoint>
TGI

>  <lt-gt-eq>
>

>  <result-value>
100

$$$$
>  <compound>
Cc1c(-c2ccc(N3CCc4cccc(C(=O)Nc5nc6ccccc6s5)c4C3)nc2C(=O)O)cnn1CC12CC3CC(CC(C3)C1)C2

>  <assay-target>
SR leukemia

>  <recorded-endpoint>
TGI

>  <lt-gt-eq>
>

>  <result-value>
57.4

$$$$
>  <compound>
CCn1c(SC)nnc1-c1cc2c([nH]c3ccccc32)c(-c2cccc(O)c2)n1

>  <assay-target>
SR leukemia

>  <recorded-endpoint>
TGI

>  <lt-gt-eq>
>

>  <result-value>
100

$$$$
>  <compound>
N#Cc1c(N)n(-c2nc3ccccc3s2)c(=O)c2cc([N+](=O)[O-])ccc12

>  <assay-target>
SR leukemia

>  <recorded-endpoint>
TGI

>  <lt-gt-eq>
=

>  <result-value>
56.2

$$$$
>  <compound>
COc1ccc(-c2cc(-c3ccc(Nc4ccnc5cc(C(F)(F)F)ccc45)cc3)nc(N)c2C#N)c2ccccc12

>  <assay-target>
SR leukemia

>  <recorded-endpoint>
TGI

>  <lt-gt-eq>
>

>  <result-value>
100

$$$$
>  <compound>
COc1ccc(-c2ccc(/C=N/n3c(COc4ccc(Cl)c(C)c4)nn(CN4CCOCC4)c3=S)o2)c([N+](=O)[O-])c1

>  <assay-target>
SR leukemia

>  <recorded-endpoint>
TGI

>  <lt-gt-eq>
=

>  <result-value>
72.1

$$$$
